Measured protein stability index, listed per entry for reference.
B1: FBXO34 (parent)
chain: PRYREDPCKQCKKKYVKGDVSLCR

# Variants of: B1
# Assay overview: protein stability index of a GFP-peptide fusion (GPS, HEK-293T) (PSI 1-6); higher = more stable;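 note: lentivirally expressed fusions sorted by FACS into six bins by GFP to DsRed ratio, PSI derived from sequencing read proportions per bin multiplied by bin number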
# Measurement parameters: c terminus: a fixed tail appended
Quantity measured: protein stability index

[
  {
    "Variant id": "S21D",
    "Assay value": 2.92
  },
  {
    "Variant id": "E5D",
    "Assay value": 2.94
  },
  {
    "Variant id": "K12S",
    "Assay value": 2.54
  },
  {
    "Variant id": "C11K",
    "Assay value": 4.09
  },
  {
    "Variant id": "K13R",
    "Assay value": 2.6
  },
  {
    "Variant id": "E5I",
    "Assay value": 2.46
  },
  {
    "Variant id": "Q10V",
    "Assay value": 3.28
  },
  {
    "Variant id": "Y15K",
    "Assay value": 3.49
  },
  {
    "Variant id": "C8T",
    "Assay value": 3.98
  },
  {
    "Variant id": "G18W",
    "Assay value": 2.3
  },
  {
    "Variant id": "R24M",
    "Assay value": 3.09
  },
  {
    "Variant id": "Y15C",
    "Assay value": 2.73
  },
  {
    "Variant id": "C23A",
    "Assay value": 2.95
  },
  {
    "Variant id": "K9V",
    "Assay value": 2.82
  },
  {
    "Variant id": "P1I",
    "Assay value": 2.34
  },
  {
    "Variant id": "V20Y",
    "Assay value": 2.38
  },
  {
    "Variant id": "K17A",
    "Assay value": 2.89
  },
  {
    "Variant id": "S21R",
    "Assay value": 2.97
  },
  {
    "Variant id": "P7T",
    "Assay value": 2.18
  },
  {
    "Variant id": "R24D",
    "Assay value": 3.82
  },
  {
    "Variant id": "R4Q",
    "Assay value": 2.79
  },
  {
    "Variant id": "Y15G",
    "Assay value": 3.47
  },
  {
    "Variant id": "R4S",
    "Assay value": 2.78
  },
  {
    "Variant id": "V16L",
    "Assay value": 2.98
  },
  {
    "Variant id": "R4V",
    "Assay value": 2.77
  },
  {
    "Variant id": "R2Y",
    "Assay value": 2.64
  },
  {
    "Variant id": "P7L",
    "Assay value": 1.85
  },
  {
    "Variant id": "R2E",
    "Assay value": 2.97
  },
  {
    "Variant id": "Q10D",
    "Assay value": 2.83
  },
  {
    "Variant id": "Y15T",
    "Assay value": 3.13
  },
  {
    "Variant id": "G18A",
    "Assay value": 2.54
  },
  {
    "Variant id": "V20M",
    "Assay value": 2.88
  },
  {
    "Variant id": "Y3C",
    "Assay value": 2.77
  },
  {
    "Variant id": "C23G",
    "Assay value": 2.88
  },
  {
    "Variant id": "P7H",
    "Assay value": 2.23
  },
  {
    "Variant id": "K12I",
    "Assay value": 2.33
  },
  {
    "Variant id": "V20W",
    "Assay value": 2.06
  },
  {
    "Variant id": "K14L",
    "Assay value": 2
  },
  {
    "Variant id": "V20P",
    "Assay value": 3.05
  },
  {
    "Variant id": "K13N",
    "Assay value": 2.66
  },
  {
    "Variant id": "Q10I",
    "Assay value": 2.13
  },
  {
    "Variant id": "D6F",
    "Assay value": 2.35
  },
  {
    "Variant id": "R24S",
    "Assay value": 3.39
  },
  {
    "Variant id": "K9H",
    "Assay value": 2.29
  },
  {
    "Variant id": "S21A",
    "Assay value": 3.03
  },
  {
    "Variant id": "V16F",
    "Assay value": 2.22
  },
  {
    "Variant id": "K17N",
    "Assay value": 2.77
  },
  {
    "Variant id": "D19H",
    "Assay value": 2.88
  },
  {
    "Variant id": "K12T",
    "Assay value": 2.57
  },
  {
    "Variant id": "G18E",
    "Assay value": 3.17
  },
  {
    "Variant id": "Q10R",
    "Assay value": 2.75
  },
  {
    "Variant id": "Q10H",
    "Assay value": 2.39
  },
  {
    "Variant id": "C23L",
    "Assay value": 3.1
  },
  {
    "Variant id": "V20I",
    "Assay value": 2.64
  },
  {
    "Variant id": "Y3S",
    "Assay value": 2.8
  },
  {
    "Variant id": "R2G",
    "Assay value": 3.47
  },
  {
    "Variant id": "K9T",
    "Assay value": 2.66
  },
  {
    "Variant id": "E5G",
    "Assay value": 2.68
  },
  {
    "Variant id": "P1E",
    "Assay value": 3.4
  },
  {
    "Variant id": "P7K",
    "Assay value": 2.51
  },
  {
    "Variant id": "Y15Q",
    "Assay value": 2.9
  },
  {
    "Variant id": "Q10A",
    "Assay value": 2.79
  },
  {
    "Variant id": "L22H",
    "Assay value": 2.88
  },
  {
    "Variant id": "R24V",
    "Assay value": 3.34
  },
  {
    "Variant id": "D19N",
    "Assay value": 3.52
  },
  {
    "Variant id": "R4T",
    "Assay value": 2.97
  },
  {
    "Variant id": "Y3W",
    "Assay value": 2.55
  },
  {
    "Variant id": "L22V",
    "Assay value": 3.23
  },
  {
    "Variant id": "V20N",
    "Assay value": 2.97
  },
  {
    "Variant id": "V16E",
    "Assay value": 2.81
  },
  {
    "Variant id": "P1D",
    "Assay value": 2.96
  }
]
